Entries and their IC50
Target entity: mouse TRPM3α2 (mTRPM3) ion channel (Mus musculus, UniProt J9SQF3)
Sequence (J9SQF3 1-1709 isoform J9SQF3-12): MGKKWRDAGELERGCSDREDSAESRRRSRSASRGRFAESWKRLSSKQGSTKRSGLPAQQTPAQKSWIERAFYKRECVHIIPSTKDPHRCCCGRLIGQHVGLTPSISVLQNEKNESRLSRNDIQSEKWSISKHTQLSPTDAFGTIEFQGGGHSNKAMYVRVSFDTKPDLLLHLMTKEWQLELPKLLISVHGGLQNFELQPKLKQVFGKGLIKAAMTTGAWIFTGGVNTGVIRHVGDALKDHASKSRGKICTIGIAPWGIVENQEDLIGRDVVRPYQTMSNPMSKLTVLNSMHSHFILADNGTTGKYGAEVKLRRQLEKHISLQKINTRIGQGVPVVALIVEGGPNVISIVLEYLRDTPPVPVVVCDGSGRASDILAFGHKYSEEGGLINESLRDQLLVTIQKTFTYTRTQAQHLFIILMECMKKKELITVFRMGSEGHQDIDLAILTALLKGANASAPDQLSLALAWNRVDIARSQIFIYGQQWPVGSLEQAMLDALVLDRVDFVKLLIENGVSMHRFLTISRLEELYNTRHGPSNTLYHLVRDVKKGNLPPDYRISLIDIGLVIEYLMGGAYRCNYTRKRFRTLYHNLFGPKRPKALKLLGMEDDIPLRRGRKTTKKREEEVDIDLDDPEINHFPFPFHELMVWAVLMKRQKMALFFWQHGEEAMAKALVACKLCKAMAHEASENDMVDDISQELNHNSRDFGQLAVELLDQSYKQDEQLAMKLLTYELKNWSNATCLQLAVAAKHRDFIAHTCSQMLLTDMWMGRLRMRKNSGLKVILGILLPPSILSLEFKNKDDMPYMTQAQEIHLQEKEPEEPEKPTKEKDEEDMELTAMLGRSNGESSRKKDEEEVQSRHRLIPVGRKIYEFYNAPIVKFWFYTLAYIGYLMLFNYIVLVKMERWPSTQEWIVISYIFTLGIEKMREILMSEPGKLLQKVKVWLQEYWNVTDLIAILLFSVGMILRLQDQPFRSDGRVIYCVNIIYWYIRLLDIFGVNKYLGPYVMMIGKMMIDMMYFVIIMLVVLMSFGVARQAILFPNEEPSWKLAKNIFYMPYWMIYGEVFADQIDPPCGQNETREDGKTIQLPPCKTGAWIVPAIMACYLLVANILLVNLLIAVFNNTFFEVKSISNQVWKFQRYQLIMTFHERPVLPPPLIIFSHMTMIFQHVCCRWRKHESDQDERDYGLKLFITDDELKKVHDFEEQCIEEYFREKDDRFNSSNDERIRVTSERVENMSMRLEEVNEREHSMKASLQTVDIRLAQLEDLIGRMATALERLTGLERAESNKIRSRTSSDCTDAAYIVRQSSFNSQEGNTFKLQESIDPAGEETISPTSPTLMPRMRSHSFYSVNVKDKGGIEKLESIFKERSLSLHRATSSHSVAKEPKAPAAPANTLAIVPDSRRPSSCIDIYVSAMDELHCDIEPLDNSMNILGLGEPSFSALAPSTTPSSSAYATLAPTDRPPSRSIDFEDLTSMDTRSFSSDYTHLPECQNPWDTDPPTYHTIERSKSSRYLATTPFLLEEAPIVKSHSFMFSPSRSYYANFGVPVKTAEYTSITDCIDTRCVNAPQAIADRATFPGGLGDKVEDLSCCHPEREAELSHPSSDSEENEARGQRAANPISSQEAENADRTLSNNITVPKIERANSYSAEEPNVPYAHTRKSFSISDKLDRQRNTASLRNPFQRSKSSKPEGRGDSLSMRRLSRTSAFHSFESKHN
Measurement notes: TRPM3 ion channel driven Ca2+ uptake, Fluo-4 AM assay, PS-stimulated (mTRPM3)
Condition label: TRPM3 overexpressing flip-in HEK293 cells stimulated with Pregnenolone sulfate (PS) 50 μM, activity ranges A, B, C

Molecule | Reported property | Reading
Cc1oc2ccc(OCc3ccccc3F)cc2c1C(=O)NC(C)CO (single isomer, unassigned) [Cpd 328-En 2] | IC50 | < 1000 nM
CN1CCC(NC(=O)c2c(C3CCCC3)oc3ccc(OCc4ccccc4)cc23)CC1 | IC50 | > 20000 nM
CNC(=O)c1c(C)oc2ccc(OCc3c(F)cccc3Cl)cc12 | IC50 | < 1000 nM
Cc1oc2ccc(OCc3ccccc3)cc2c1C(=O)NCCN1CCN(C)CC1 | IC50 | 1000 to 20000 nM
Cc1oc2ccc(OCc3c(F)cccc3Cl)cc2c1C(N)=O | IC50 | < 1000 nM
Cc1oc2ccc(OCc3ccccc3)cc2c1C(=O)N[C@H]1CC[C@H](C(C)(C)O)CC1 | IC50 | 1000 to 20000 nM
Cc1oc2ccc(OCc3ccccc3)cc2c1C(=O)NC1CCNC(C)C1 (racemic) [Cpd 114] | IC50 | < 1000 nM
Cc1oc2ccc(OCc3ccccc3F)cc2c1C(=O)NC1COCC1(F)F (single isomer, unassigned) [Cpd 331-En 2] | IC50 | < 1000 nM

Form field - read-out: IC50; system: mouse TRPM3α2 (mTRPM3) ion channel (Mus musculus, UniProt J9SQF3); submitted item: CCN1CCC(NC(=O)c2c(C)oc3ccc(OCc4ccccc4)cc23)CC1
< 1000 nM

Form field - read-out: IC50; system: mouse TRPM3α2 (mTRPM3) ion channel (Mus musculus, UniProt J9SQF3); submitted item: Cc1oc2ccc(OCc3ccccc3)cc2c1C(=O)NC1CCOC1 (centres unmarked)
< 1000 nM

Form field - read-out: IC50; system: mouse TRPM3α2 (mTRPM3) ion channel (Mus musculus, UniProt J9SQF3); submitted item: Cc1cccc(COc2ccc3oc(C)c(C(=O)NS(=O)(=O)C4CC4)c3c2)c1
1000 to 20000 nM

Form field - read-out: IC50; system: mouse TRPM3α2 (mTRPM3) ion channel (Mus musculus, UniProt J9SQF3); submitted item: Cc1oc2ccc(OCc3ccccc3)cc2c1C(=O)NCc1nnc2ncccn12
1000 to 20000 nM

Form field - read-out: IC50; system: mouse TRPM3α2 (mTRPM3) ion channel (Mus musculus, UniProt J9SQF3); submitted item: Cc1oc2ccc(OCc3ccccc3)cc2c1C(=O)NC1(CN)CCC1
< 1000 nM

Form field - read-out: IC50; system: mouse TRPM3α2 (mTRPM3) ion channel (Mus musculus, UniProt J9SQF3); submitted item: Cc1oc2ccc(OC(C)c3ccccc3)cc2c1C(=O)O (centres unmarked)
1000 to 20000 nM

###

Target entity: mouse TRPM3α2 (mTRPM3) ion channel (Mus musculus, UniProt J9SQF3)
Measurement notes: TRPM3 ion channel driven Ca2+ uptake, Fluo-4 AM assay, PS-stimulated (mTRPM3)
Condition label: TRPM3 overexpressing flip-in HEK293 cells stimulated with Pregnenolone sulfate (PS) 50 μM, activity ranges A, B, C
pIC50: −log10 of the molar value.
Reported property: pIC50

Worked cases, answers included:
Compound | Reported property | Reading
Cc1oc2ccc(OCc3ccccc3)cc2c1C(=O)NO [Cpd 036] | pIC50 | > 6.00
Cc1oc2ccc(OCc3ccccc3)cc2c1C(=O)N[C@H]1CCN(C(=O)OC(C)(C)C)C1 [Cpd 239] | pIC50 | 4.70 to 6.00
Cc1ccc(COc2ccc3oc(C)c(C(=O)N[C@@H](CO)C(N)=O)c3c2)c(F)c1 [Cpd 342] | pIC50 | > 6.00
Cc1oc2ccc(OCc3ccccc3)cc2c1C(=O)NC1CCC(=O)NC1 (stereo not drawn) [Cpd 111] | pIC50 | 4.70 to 6.00
Cc1oc2ccc(OCc3ccccc3F)cc2c1C(=O)NC1CCN(CCO)C1=O (single isomer, unassigned) [Cpd 311-En 1] | pIC50 | > 6.00

For the compound shown here, Cc1oc2ccc(OCc3ccccc3)cc2c1C(=O)NC1CCN(C(C)C)CC1 [Cpd 185] , give the reported pIC50.
> 6.00
